// provenance: patent US20140120083A1

Reported IC50 values, PI3K α (Homo sapiens).

- Cc1cccc2cc(C(C)Nc3nc(N)nc4[nH]cnc34)n(-c3ccccc3)c(=O)c12 (centres unmarked): < 1 µM

Task: Report IC50 from PI3K α (Homo sapiens) testing of Cc1ccccc1-n1c(Cn2nc(/C=C/C(=O)N3CCOCC3)c3c(N)ncnc32)cc2cccc(C)c2c1=O
Output: > 10 µM

Task: Report IC50 from PI3K α (Homo sapiens) testing of Cc1cccc2cc([C@H](C)Nc3cc(N)nc(N)n3)n(-c3ccccc3)c(=O)c12
Output: > 10 µM

Task: Report IC50 from PI3K α (Homo sapiens) testing of COc1ccccc1-n1c(Cn2nc(-c3cccc(O)c3)c3c(N)ncnc32)cc2cccc(C)c2c1=O
Output: > 10 µM

Task: Report IC50 from PI3K α (Homo sapiens) testing of Cc1ccccc1-n1c(Cn2nc(C#CCO)c3c(N)ncnc32)cc2cccc(C)c2c1=O
Output: > 10 µM

Task: Report IC50 from PI3K α (Homo sapiens) testing of Cc1cccc2cc([C@H](C)Nc3nc(F)nc4[nH]cnc34)n(C3CC3)c(=O)c12
Output: < 10 µM

Task: Report IC50 from PI3K α (Homo sapiens) testing of Cc1cccc2cc([C@H](C)Nc3nc(Cl)nc4[nH]cnc34)n(C3CC3)c(=O)c12
Output: > 10 µM

Task: Report IC50 from PI3K α (Homo sapiens) testing of Cc1ccccc1-n1c(Cn2nc(-c3cccc(O)c3)c3c(N)ncnc32)cc2cccc(C)c2c1=O
Output: > 10 µM
